Taken from paper PMC9927415.

assayedTarget: panel of 203 kinases (Homo sapiens)
Construct: purchased DiscoverX (KINOMEscan)
Sequence (O94804 whole entry): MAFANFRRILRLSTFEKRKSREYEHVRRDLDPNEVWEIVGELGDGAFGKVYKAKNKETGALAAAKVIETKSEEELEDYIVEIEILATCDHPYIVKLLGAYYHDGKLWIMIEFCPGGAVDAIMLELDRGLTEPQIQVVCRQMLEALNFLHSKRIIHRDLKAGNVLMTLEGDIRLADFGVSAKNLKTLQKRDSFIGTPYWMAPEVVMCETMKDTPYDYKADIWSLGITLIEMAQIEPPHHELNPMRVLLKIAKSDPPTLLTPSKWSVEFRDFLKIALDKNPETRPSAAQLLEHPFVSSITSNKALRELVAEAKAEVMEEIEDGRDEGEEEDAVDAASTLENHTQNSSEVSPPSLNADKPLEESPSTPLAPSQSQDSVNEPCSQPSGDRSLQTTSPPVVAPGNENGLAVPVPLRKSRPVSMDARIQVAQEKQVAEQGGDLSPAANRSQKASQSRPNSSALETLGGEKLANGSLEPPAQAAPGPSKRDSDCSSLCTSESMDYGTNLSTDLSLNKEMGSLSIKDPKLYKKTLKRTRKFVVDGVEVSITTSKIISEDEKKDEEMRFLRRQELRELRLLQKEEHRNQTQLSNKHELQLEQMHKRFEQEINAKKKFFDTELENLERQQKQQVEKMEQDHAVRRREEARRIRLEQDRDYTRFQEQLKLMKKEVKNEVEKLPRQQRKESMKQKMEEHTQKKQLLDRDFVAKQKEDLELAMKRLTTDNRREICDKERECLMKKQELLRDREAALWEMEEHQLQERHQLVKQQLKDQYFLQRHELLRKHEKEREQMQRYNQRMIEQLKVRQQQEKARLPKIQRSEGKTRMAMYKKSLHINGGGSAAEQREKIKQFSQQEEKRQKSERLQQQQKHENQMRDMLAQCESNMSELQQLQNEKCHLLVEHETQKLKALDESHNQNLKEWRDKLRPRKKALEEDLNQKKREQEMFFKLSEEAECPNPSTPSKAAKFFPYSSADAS
experimentalDetails: KINOMEscan competitive binding, whole panel
cond: 10 µM, n=1; kinase LOK; read-out: Percent inhibition LOK
inhibition at 10 µM reference
Give the value in % but do not write % after it.

Some molecules with known inhibition at 10 µM results, for comparison:
c1ccc(COc2cccc(-c3ccnc4[nH]ccc34)c2)cc1	0
Nc1ncc2c(-c3ccncc3)c[nH]c2n1	0
CN1CCN(c2ccc(Nc3nccc(-c4cnn5ncccc45)n3)cc2C#N)CC1	88.7
Fc1cccc(COc2ccc(Nc3ncnc4c3CN(CCN3CCOCC3)CC4)cc2Cl)c1	0
Cc1ccc(O)cc1Nc1ccnc(Nc2cccc(C(N)=O)c2)n1	82.6

API: the following record is the query input.
Asked: Enter inhibition at 10 µM (test system panel of 203 kinases (Homo sapiens)) for `COc1ccc(Nc2nccc(-c3cnn4ncccc34)n2)cc1`
Given back: 0
